- subject of test: wild type B-Raf (Homo sapiens)
- Sequence (P15056 whole entry): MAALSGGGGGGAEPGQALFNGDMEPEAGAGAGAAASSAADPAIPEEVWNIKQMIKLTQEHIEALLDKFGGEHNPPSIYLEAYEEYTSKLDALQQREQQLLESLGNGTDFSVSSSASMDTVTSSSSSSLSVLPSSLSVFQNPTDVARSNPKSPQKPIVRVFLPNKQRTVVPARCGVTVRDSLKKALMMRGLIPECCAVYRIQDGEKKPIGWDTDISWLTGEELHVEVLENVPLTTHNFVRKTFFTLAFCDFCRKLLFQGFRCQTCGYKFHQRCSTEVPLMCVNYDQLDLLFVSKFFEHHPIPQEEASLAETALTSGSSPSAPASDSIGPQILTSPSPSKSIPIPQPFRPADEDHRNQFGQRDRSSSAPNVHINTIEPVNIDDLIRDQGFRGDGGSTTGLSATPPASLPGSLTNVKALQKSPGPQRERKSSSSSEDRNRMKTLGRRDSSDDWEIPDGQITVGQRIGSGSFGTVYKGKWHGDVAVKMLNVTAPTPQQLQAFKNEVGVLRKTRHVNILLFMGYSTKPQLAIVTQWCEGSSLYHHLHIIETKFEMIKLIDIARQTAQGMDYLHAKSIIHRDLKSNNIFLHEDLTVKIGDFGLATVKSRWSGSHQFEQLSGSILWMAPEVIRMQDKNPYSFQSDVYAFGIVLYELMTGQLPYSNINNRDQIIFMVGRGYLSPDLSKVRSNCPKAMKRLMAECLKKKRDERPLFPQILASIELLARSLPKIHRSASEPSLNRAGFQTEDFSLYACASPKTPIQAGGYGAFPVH
- experiment summary: ELISA-based assay, wild type B-Raf
- Assay type: biochemical
- measurement conditions: wild type B-Raf; read-out: IC50 B-RAF WT
experimental readout: pIC50
Keep in mind that pIC50 stands for -log10 of concentration in molar terms.

Query: Tell me pIC50 of Cc1cc(C(C#N)c2ccc(Cl)cc2)c(Cl)cc1NC(=O)c1cc(I)cc(I)c1O (stereo not shown) [closantel] when tested on wild type B-Raf (Homo sapiens).
Response: 5.72
